- assay text: Tissue half-life (t1/2) and Cmax in plasma, brain, kidney and liver after oral administration to CD-1 mice
- Format: in vivo, mouse
- condition parameters: male, mouse, plasma t1/2, 30 mg/kg oral gavage (PO), read-out: Half-Lives (h) Plasma (converted)
- Method: In vivo studies were conducted to observe the effect of the compounds of the invention in the subject animal. Male CD-1 mice, body weight of 20 grams at arrival, were used in these studies. Mice were given 30 mg/kg of compound in HPMC/Tween solution or suspension via oral gavage. Plasma, brain, and liver samples were collected at time periods of 1, 2, 4, 8, and 24 hours post dosing. One mouse was used per time point. Thus, a total of 5 mice were used for each compound tested. […]
reported endpoint: half-life (h)

COc1ccc(CCn2c(-c3cccnc3)nc3cc(NC(=N[C@H]4C[C@H]5C[C@@H]([C@@H]4C)C5(C)C)N4CCN[C@@H](CF)C4)ccc3c2=O)c(F)c1 [Example 248]	5.3

a = COc1ccc(CCn2c(CN3CCN(C)CC3)nc3cc(NC(=N[C@H]4C[C@H]5C[C@@H]([C@@H]4C)C5(C)C)N4CC(=O)N[C@@H](C)C4)ccc3c2=O)c(F)c1 [Example 239]
b = COc1ccc(CCn2c(-c3cccnc3)nc3cc(NC(=N[C@H]4C[C@H]5C[C@@H]([C@@H]4C)C5(C)C)N4CCN(O)[C@@H](C)C4)ccc3c2=O)c(F)c1 [Example 245]
-- ask Endpoint returns the identifier whose half-life is numerically larger, either a or b . Label of pick, please.
-- reply a
(a: 4.5 h, b: 2.2 h)

* * *

- assay text: Tissue half-life (t1/2) and Cmax in plasma, brain, kidney and liver after oral administration to CD-1 mice
- Type: in vivo, mouse
- condition parameters: male, mouse, liver t1/2, 30 mg/kg oral gavage (PO), read-out: Half-Lives (h) Liver (converted)
reported endpoint: half-life (h)

Worked set:
C[C@@H]1[C@@H](N=C(Nc2ccc3c(=O)n(CCc4ccc(Br)cc4)c(-c4cccnc4)nc3c2)N2CCN[C@@H](C(F)F)C2)C[C@H]2C[C@@H]1C2(C)C	9.4
COc1ccc(CCn2c(-c3cccnc3)nc3cc(N/C(=N/[C@H]4C[C@@H]5C[C@H]([C@@H]4C)C5(C)C)N4C[C@@H](C)N(C#N)[C@@H](C)C4)ccc3c2=O)c(F)c1	9.5

a = COc1ccc(CCn2c(-c3cnccn3)nc3cc(NC(=N[C@H]4C[C@H]5C[C@@H]([C@@H]4C)C5(C)C)N4CCN[C@@H](C(F)F)C4)ccc3c2=O)c(F)c1
b = COc1ccc(CCn2c(-c3ccncc3)nc3cc(NC(=N[C@H]4C[C@H]5C[C@@H]([C@@H]4C)C5(C)C)N4CCN[C@@H](CF)C4)ccc3c2=O)c(F)c1
-- ask Endpoint returns the identifier whose half-life is numerically larger, either a or b . Label of pick, please.
-- reply b

* * *

- assay text: Tissue half-life (t1/2) and Cmax in plasma, brain, kidney and liver after oral administration to CD-1 mice
- Format: in vivo, mouse
- condition parameters: male, mouse, kidney t1/2, 30 mg/kg oral gavage (PO), read-out: Half-Lives (h) Kidney (converted)
reported endpoint: half-life (h)

Worked set:
COc1ccc(CCn2c(-c3cccnc3)nc3cc(NC(=N[C@H]4C[C@H]5C[C@@H]([C@@H]4C)C5(C)C)N4CCN(CC#N)[C@@H](C)C4)ccc3c2=O)c(F)c1	11
COc1ccc(CCn2c(-c3cccnc3)nc3cc(N/C(=N/[C@H]4C[C@@H]5C[C@H]([C@@H]4C)C5(C)C)N4C[C@@H](C)N(O)[C@@H](C)C4)ccc3c2=O)c(F)c1	3.3
COc1ccc(CCn2c(-c3cnccn3)nc3cc(NC(=N[C@H]4C[C@H]5C[C@@H]([C@@H]4C)C5(C)C)N4CCN[C@@H](CF)C4)ccc3c2=O)c(F)c1	8.6
COc1ccc(CCn2c(-c3cccnc3)nc3cc(NC(=N[C@H]4C[C@H]5C[C@@H]([C@@H]4C)C5(C)C)N4CC(=O)N[C@@H](C)C4)ccc3c2=O)c(F)c1	2.7
COc1ccc(CCn2c(-c3nccs3)nc3cc(NC(=N[C@H]4C[C@H]5C[C@@H]([C@@H]4C)C5(C)C)N4CCN[C@@H](CF)C4)ccc3c2=O)c(F)c1	9.6
COc1ccc(CCn2c(-c3cccnc3)nc3cc(NC(=N[C@H]4C[C@H]5C[C@@H]([C@@H]4C)C5(C)C)N4CCN[C@@H](CF)C4)ccc3c2=O)c(F)c1	11

P = COc1ccc(CCn2cnc3cc(N/C(=N/[C@H]4C[C@@H]5C[C@H]([C@@H]4C)C5(C)C)N4C[C@@H](C)N(C#N)[C@@H](C)C4)ccc3c2=O)c(F)c1
Q = COc1ccc(CCn2cnc3cc(N/C(=N/C4C[C@@H]5C[C@H]([C@@H]4C)C5(C)C)N4CC(C)CC(C)C4)ccc3c2=O)c(F)c1 (stereo partly shown)
R = COc1ccc(CCn2cnc3cc(N/C(=N/[C@H]4C[C@@H]5C[C@H]([C@@H]4C)C5(C)C)N4CCC[C@H]4CO)ccc3c2=O)c(F)c1
S = COc1ccc(CCn2c(N3CCOCC3)nc3cc(NC(=N[C@H]4C[C@H]5C[C@@H]([C@@H]4C)C5(C)C)N4CCN[C@@H](CF)C4)ccc3c2=O)c(F)c1
T = COc1ccc(CCn2c(-c3cccnc3)nc3cc(NC(=N[C@H]4C[C@H]5C[C@@H]([C@@H]4C)C5(C)C)N4CCN(O)[C@@H](C)C4)ccc3c2=O)c(F)c1
-- ask Arrange items by their half-life values in increasing order. Rank them, then answer with their labels in that order.
-- reply T, Q, R, P, S

a = C[C@@H]1[C@@H](/N=C(/Nc2ccc3c(=O)n(CCc4ccc(Cl)cc4Cl)cnc3c2)N2CCNC(=O)C2)C[C@@H]2C[C@H]1C2(C)C
b = C[C@@H]1[C@@H](/N=C(/Nc2ccc3c(=O)n(CCc4ccc(Cl)cc4Cl)cnc3c2)N2CC(O)C2)C[C@@H]2C[C@H]1C2(C)C
c = COc1ccc(CCn2c(-c3cccnc3)nc3cc(N/C(=N/C4C[C@H]5C[C@@H]([C@@H]4C)C5(C)C)N4CCN(C#N)[C@@H](C)C4)ccc3c2=O)c(F)c1 (stereo partly shown)
-- ask // sort entries: half-life, high to low Rank them, then answer with their labels in that order.
-- reply a, b, c

P = COc1ccc(CCn2c(-c3nnc[nH]3)nc3cc(NC(=N[C@H]4C[C@H]5C[C@@H]([C@@H]4C)C5(C)C)N4CCN[C@@H](CF)C4)ccc3c2=O)c(F)c1
Q = COc1ccc(CCn2c(-c3ccncc3)nc3cc(NC(=N[C@H]4C[C@H]5C[C@@H]([C@@H]4C)C5(C)C)N4CCN[C@@H](CF)C4)ccc3c2=O)c(F)c1
-- ask Endpoint returns the identifier whose half-life is numerically larger, either P or Q . Label of pick, please.
-- reply P

* * *

- assay text: Tissue half-life (t1/2) and Cmax in plasma, brain, kidney and liver after oral administration to CD-1 mice
- Assay type: in vivo, mouse
- condition parameters: male, mouse, plasma t1/2, 30 mg/kg oral gavage (PO), read-out: Half-Lives (h) Plasma (converted)
reported endpoint: half-life (h)

COc1ccc(CCn2c(-c3cnccn3)nc3cc(NC(=N[C@H]4C[C@H]5C[C@@H]([C@@H]4C)C5(C)C)N4CCN[C@@H](C(F)F)C4)ccc3c2=O)c(F)c1 [Example 234]	3.5
COc1ccc(CCn2c(N3CCOCC3)nc3cc(NC(=N[C@H]4C[C@H]5C[C@@H]([C@@H]4C)C5(C)C)N4CC(=O)N[C@@H](C)C4)ccc3c2=O)c(F)c1 [Example 221]	2.9
COc1ccc(CCn2c(NC3CC3)nc3cc(NC(=N[C@H]4C[C@H]5C[C@@H]([C@@H]4C)C5(C)C)N4CCN[C@@H](CF)C4)ccc3c2=O)c(F)c1 [Example 258]	5.3

I = COc1ccc(CCn2c(-c3nccs3)nc3cc(NC(=N[C@H]4C[C@H]5C[C@@H]([C@@H]4C)C5(C)C)N4CCN[C@@H](CF)C4)ccc3c2=O)c(F)c1 [Example 254]
II = C[C@@H]1[C@@H](N=C(Nc2ccc3c(=O)n(CCc4ccc(Br)cc4)c(-c4cccnc4)nc3c2)N2CC(=O)N[C@@H](C)C2)C[C@H]2C[C@@H]1C2(C)C [Example 230]
-- ask Hi! Which is lower in terms of half-life, the first one I or the second one II ? Label of pick, please.
-- reply II
(II: 3.1 h, I: 15 h)

I = COc1ccc(CCn2c(-c3cccnc3)nc3cc(N/C(=N/C4C[C@H]5C[C@@H]([C@@H]4C)C5(C)C)N4CCN(C#N)[C@@H](C)C4)ccc3c2=O)c(F)c1 (some centres unmarked) [Example 246]
II = COc1ccc(CCn2cnc3cc(N/C(=N/[C@H]4C[C@@H]5C[C@H]([C@@H]4C)C5(C)C)N4C[C@@H](C)N(C#N)[C@@H](C)C4)ccc3c2=O)c(F)c1 [Example 301]
III = C[C@@H]1[C@@H](N=C(Nc2ccc3c(=O)n(CCc4ccc(Br)cc4)c(-c4cccnc4)nc3c2)N2CCN[C@@H](C(F)F)C2)C[C@H]2C[C@@H]1C2(C)C [Example 227]
-- ask Arrange items by their half-life values in increasing order. Rank them, then answer with their labels in that order.
-- reply II, III, I
(II: 2.5 h, III: 3.9 h, I: 5.7 h)

All values here come from patent US7368453B2.
